From: ChEMBL document CHEMBL3885861

species on record: Rattus norvegicus; assay: Open TG-GATES - Regimen: Daily Repeat; type: toxicity, organism-based, Sprague-Dawley; set-up: regimen Daily Repeat, gender Male, age 6 weeks; conditions: in vivo, po, 300 mg/kg, […], tissue Blood, route gavage, dose level Middle, time 28 day
Measured Metric: MCHC (%)
Give bare numbers, in %.

COC(=O)C1=C(C)NC(C)=C(C(=O)OC)C1c1ccccc1[N+](=O)[O-]	32.3
CCOc1ccc(NC(C)=O)cc1	33.8
CNC(=C[N+](=O)[O-])NCCSCc1ccc(CN(C)C)o1	35.4

Below is a list of compounds. For each, state its recorded MCHC.
1. O=C(OC[C@H]1O[C@@H](OC(=O)c2cc(O)c(O)c(OC(=O)c3cc(O)c(O)c(O)c3)c2)[C@H](OC(=O)c2cc(O)c(O)c(OC(=O)c3cc(O)c(O)c(O)c3)c2)[C@@H](OC(=O)c2cc(O)c(O)c(OC(=O)c3cc(O)c(O)c(O)c3)c2)[C@@H]1OC(=O)c1cc(O)c(O)c(OC(=O)c2cc(O)c(O)c(O)c2)c1)c1cc(O)c(O)c(OC(=O)c2cc(O)c(O)c(O)c2)c1
2. Cc1nnc2n1-c1ccc(Cl)cc1C(c1ccccc1Cl)=NC2
3. CN/C(=N/CCSCc1nc[nH]c1C)NC#N

Ans:
1: 33.2; 2: 33.6; 3: 34.6
